Source: paper PMC10786891

Quick reference for pKd among some binders
# MEASUREMENT TARGET: T1, EsCas13d, nuclease-dead (Eubacterium siraeum, UniProt B0MS50, R295A;H300A;R849A;H854A)
# T1 sequence: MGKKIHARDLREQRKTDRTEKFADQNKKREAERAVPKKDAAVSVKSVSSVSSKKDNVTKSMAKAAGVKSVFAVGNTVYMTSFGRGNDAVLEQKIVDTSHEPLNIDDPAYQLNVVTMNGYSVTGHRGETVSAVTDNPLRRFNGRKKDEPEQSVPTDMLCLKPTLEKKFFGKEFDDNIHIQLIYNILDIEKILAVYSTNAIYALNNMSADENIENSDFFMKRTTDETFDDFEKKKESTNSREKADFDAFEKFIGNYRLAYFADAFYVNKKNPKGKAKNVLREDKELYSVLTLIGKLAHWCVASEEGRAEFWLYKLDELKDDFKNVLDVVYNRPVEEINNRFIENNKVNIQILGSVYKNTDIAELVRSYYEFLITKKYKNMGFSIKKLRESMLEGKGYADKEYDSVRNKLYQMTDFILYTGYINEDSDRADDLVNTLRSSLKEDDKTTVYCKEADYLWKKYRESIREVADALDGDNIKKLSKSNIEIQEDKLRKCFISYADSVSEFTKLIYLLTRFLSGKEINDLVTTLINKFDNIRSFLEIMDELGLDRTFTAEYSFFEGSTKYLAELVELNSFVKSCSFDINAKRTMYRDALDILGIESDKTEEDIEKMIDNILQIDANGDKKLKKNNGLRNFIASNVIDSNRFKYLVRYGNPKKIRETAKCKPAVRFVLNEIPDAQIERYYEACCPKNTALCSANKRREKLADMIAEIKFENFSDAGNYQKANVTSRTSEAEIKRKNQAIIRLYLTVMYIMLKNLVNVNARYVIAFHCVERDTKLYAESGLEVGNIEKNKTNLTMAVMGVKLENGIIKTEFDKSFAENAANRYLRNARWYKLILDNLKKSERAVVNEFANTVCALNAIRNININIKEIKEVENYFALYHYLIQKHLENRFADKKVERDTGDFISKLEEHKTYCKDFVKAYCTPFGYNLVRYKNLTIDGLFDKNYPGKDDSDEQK
# TEST: crRNA (strand 1, pre-loaded); Mg2+; 40 mM Tris-HCl pH 7.5, 150 mM NaCl, 6 mM MgCl2, 1 mM DTT, 0.1% Tween-20, 0.2 mg/ml BSA; 25 C; 10 min per concentration, then washed
# RUN PARAMETERS: tags: His6-TwinStrep-SUMO cleaved; N-terminal SNAP kept (SNAP-Surface 488); label: 3' end held by stalled T7 RNA polymerase
pKd: −log10 of the molar value.

{"BINDER": "target 1 insC 3' of 18,insA 3' of 8 (mixed) RNA 1: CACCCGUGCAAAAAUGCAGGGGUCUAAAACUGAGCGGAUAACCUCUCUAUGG RNA 2: GGGAAUGGAUCCACAUCUACGAAUUCGUACCAUACGAGAGGUUAUACCGCUCACCGAGAUCGGAAGAGCACACGU", "pKd": 7.16}
{"BINDER": "target 1 insC 3' of 12,insC 3' of 9 (mixed) RNA 1: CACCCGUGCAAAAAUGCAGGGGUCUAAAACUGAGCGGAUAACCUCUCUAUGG RNA 2: GGGAAUGGAUCCACAUCUACGAAUUCGUACCAUAGAGAGGCUUACUCCGCUCACCGAGAUCGGAAGAGCACACGU", "pKd": 7.66}
